Tested on: RAW-Dual (murine macrophage reporter line)
test-protocol: IRF reporter (Lucia luciferase) activity fold change vs agonist alone; higher = enhanced IRF activity
applied-conditions: modulator concentration 10 µM; agonist: 3'3'-cGAMP 10 ug/mL
Tag: T if measured IRF reporter is not below 0.7, F if it is.

// known answers, use as guide
compound	class-label
CS(=O)(=O)N1CC(C(=O)N2CCN(c3cccc(Cl)c3Cl)CC2)C1	T
COC(=O)CNC(c1ccccc1)c1cc(Br)ccc1NC(=O)c1ccccc1Br (stereo not drawn)	F
Cl.Cl.OCCOCCN1CCN(C(c2ccccc2)c2ccc(Cl)cc2)CC1 (stereo not drawn)	T
Cc1ccc(Sc2ccccc2N2CCNCC2)c(C)c1	F
COc1cc2c(cc1OC)CN(CCc1ccc(NC(=O)c3cccc4c(=O)c5cccc(OC)c5[nH]c34)cc1)CC2	F

Ask: Threshold query (IRF reporter >= 0.7) on COC12C(COC(N)=O)C3=C(C(=O)C(C)=C(N)C3=O)N1CC1NC12 (stereo not drawn)
Result: T

Ask: Threshold query (IRF reporter >= 0.7) on N[C@@H](CSCCCO)C(=O)O
Result: T

Ask: Threshold query (IRF reporter >= 0.7) on CC(C)Oc1ccc(C(=O)NC2CCN(c3ncnc4c3CCCC4)CC2)cn1
Result: T
